Target: T1, murine GPC3-his protein (Sino Biological, Cat. No. 50989-M08B) (murine, UniProt Q8CFZ4 25-558)
T1 construct: Bought protein; also called murine GPC3 protein
T1 sequence (Q8CFZ4 25-558 limits assumed): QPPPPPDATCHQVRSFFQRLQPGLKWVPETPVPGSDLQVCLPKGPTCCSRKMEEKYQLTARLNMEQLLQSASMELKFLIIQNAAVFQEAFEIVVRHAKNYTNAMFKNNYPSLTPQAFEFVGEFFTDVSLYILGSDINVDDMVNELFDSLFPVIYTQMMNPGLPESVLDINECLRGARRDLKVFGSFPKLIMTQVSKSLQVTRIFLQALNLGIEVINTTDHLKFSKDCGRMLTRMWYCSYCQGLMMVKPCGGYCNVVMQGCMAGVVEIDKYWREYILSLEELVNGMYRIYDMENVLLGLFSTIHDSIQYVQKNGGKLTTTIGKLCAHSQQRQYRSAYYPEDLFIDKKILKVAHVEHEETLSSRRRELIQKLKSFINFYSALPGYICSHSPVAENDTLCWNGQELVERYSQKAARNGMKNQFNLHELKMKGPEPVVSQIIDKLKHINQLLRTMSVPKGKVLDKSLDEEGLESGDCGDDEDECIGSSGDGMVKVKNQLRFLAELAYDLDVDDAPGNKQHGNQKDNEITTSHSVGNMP
Experiment: ELISA, coated murine GPC3-His;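 note: antigen coated on plates at 1 µg/mL, test antibody bound for 2 h at 37 °C, detected with HRP-conjugated secondary antibody and TMB substrate after acid stop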
MEASURE: OD450 at 10 nM antibody (OD450 nm)
# number only, unit OD450 nm dropped from output

q: Quick one: OD450 at 10 nM antibody for F1.62.9 human-murine chimeric antibody (antibody, human IgG1, kappa, V domains shown) VH: QVQLQQSDAELVKPGASVKISCKVSGYIFTDHTIHWMKQRPEQGLEWIGYIYPRDGSIKYNENFKGKATLTADKSSSATYMQLNSLTSEDSAVYFCARPIYYDYAYYFDYWGQGTTLTVSS VL: DVVMTQSPLSLPVSLGDQASISCRSRQSLVHSNGNTYLHWYLQKPGQSPKVLIYKVSNRFSGVPDRFSGSGSGTDFTLKISRVEAEDLGVYFCSQSTHVPYTFGGGTKLEIKR ?
a: 0.06

q: Also F1.3.9 human-murine chimeric antibody (antibody, human IgG1, kappa, V domains shown) VH: QVQLQQPGTELVKPGASVKLSCKASGYTFTSYWIHWVKQRPGQGLEWIGNINPPNAGTNYNEKFKSKATLTVDKSSSTAYMQLSSLTSEDSAVYYCARGRWLLHDYWGQGTTLTVSS VL: DIQMTQSPASLSISVGETVTITCRASENIYSNLAWYQQKQGKSPQLLVYGTKNLAEGVPSRFSGSGSGTQYSLKINSLQSEDFGNYYCQHFWGTPYTFGGGTKLEILR ?
a: 0.18

q: Same question, F2.23.8 human-murine chimeric antibody (antibody, human IgG1, kappa, V domains shown) VH: QVQLQQSGAELVRPGASVKLSCKASGYTFTDYEMHWVKQTPVHGLEWFGAIDPETGGTAYNQKFRAKATLTADKSSSTAYMELRSLTSEDSAVYYCTRFYSFAYWGQGTLVTVSA VL: DVVMTQTPLSLPVSLGDQASISCRSSQSLVHSNGNTYLQWYLQKPGQSPKLLIYKVSNRFSGVPDRFSGSGSGTDFTLKITRVEAEDLGVYFCSQSTHVPYTFGSGTKLEIKR this time
a: 0.05

q: Repeat for the following binder: F1.145.22 human-murine chimeric antibody (antibody, human IgG1, kappa, V domains shown) VH: QVQLQQSGTDLARPGASVKLSCKASGYTFTSFGISWVKQRTGQGLEWIGEIYPRSGSPYYNEKFTGKATLTADKSSSTAYMELRSLTSEDSAVYFCAKDFGSSYVFDYWGQGTALTVSS VL: DIQMTQSPASLSASVGETVTITCRASENIYSYLTWYQQKQGKSPQLLVYNAKTLAEGVPSRFSGSGSGTQFSLKINSLQPEDFGTYYCQHHYGTPPTFGTGTKLDLKR
a: 1.62

q: Now consider F1.118.4 human-murine chimeric antibody (antibody, human IgG1, kappa, V domains shown) VH: QVQLQQSGAELAKPGASVKLSCKASGYSFTSYWIHWVKQRPGQGLEWIGYINPSSGYTKYNQKFKDKATLTADKSSSTAYMQLSSLTYEDSAVYYCARFGSSSFYFDYWGQGTTLTVSS VL: DIVLTQSPASLAVSLGQRATISCRASQSVSSSSYSYMHWYQQKPGQPPKLLIKYASNLDSGVPARFSGSGSGTDFTLNIHPVEEEDTATYYCQHSWEIPAFGGGTKLEIKR and answer again.
a: 0.06
